Test system: MCF7
ASSAY TEXT: NCI tumour cell line growth inhibition, 48 h
The source made the active and inactive calls. Cut-off read from the data, not from the text of the source: active = GI50 up to about 1.1 µM and inactive = higher.
PROPERTY MEASURED: GI50

Cc1nc2c(=O)n3c4c(cccc4c2o1)CCC3; > 100 µM (inactive)

Please turn your attention to the following entry.
Query: Recorded GI50 for COC1OC(CS(=O)(=O)O)C(O)C(O)C1O (stereo unspecified) , please?
Result: > 100 µM (inactive)

* * *

Tested on: BT-549
ASSAY TEXT: NCI tumour cell line growth inhibition, 48 h
Calls of active or inactive are those of the source. Rule as the data show it: active = GI50 up to about 1.1 µM and inactive = higher. Where a SMILES comes first, the peptide text is derived from it. [ ]: non-standard residue; d: D form. The star is where a group is joined. Phe(4-NO2) = N[CH](Cc1ccc([N+](=O)[O-])cc1)C(=O)O; Cbz = O=C(OCc1ccccc1)*
PROPERTY MEASURED: GI50

Known GI50 results, listed for orientation:
O=C1OC2C=CCC1C2 (centres undefined); > 100 µM (inactive)
CCOC(=O)CCC(NC(=O)OCc1ccccc1)C(=O)NC(CCC(=O)OCC)C(=O)NC(Cc1ccc([N+](=O)[O-])cc1)C(=O)NC(CCC(=O)OCC)C(=O)NC(CCC(=O)OCC)C(=O)OCC (centres undefined) (Cbz-E(OEt)E(OEt)[Phe(4-NO2)]E(OEt)E(OEt)-OEt; configuration not given here); > 100 µM (inactive)
CCn1c(-c2cc(OC)cc(OC)c2)nc2c1C(=O)c1ccccc1C2=O; > 100 µM (inactive)

Query: Record request: GI50 value, item `COc1cc(/C=N/n2c(C)n[nH]c2=O)cc(OC)c1OC`
Result: 78 µM (inactive)

Query: Any idea what its GI50 is? The molecule is c1ccc(C2CC(NC3CCCCC3)=Nc3ccccc3N2)cc1 (centres undefined)
Result: 54.8 µM (inactive)

Query: Reported GI50 for `O=C(/C=C1\Nc2ccccc2N\C1=C\C(=O)c1ccc(Cl)cc1)c1ccccc1` : what is it?
Result: 34.5 µM (inactive)

Query: Please give the measured GI50 for this molecule: COc1ccc(-c2c3c(n(C4OC(CO)C(O)C(O)C4O)c(=S)c2C#N)CCC3)cc1 (centres undefined)
Result: 51.2 µM (inactive)

Query: Fill in: GI50 of `C#CC(C)(C)OC(=O)C(=[N+]=[N-])C(C)=O` is ___
Result: > 10 µM (inactive)

Query: Consider the molecule `[N-]=[N+]=Nc1c(Cc2ccccc2)c(=O)oc2ccccc12` and give its measured GI50.
Result: 24.5 µM (inactive)

* * *

System: MOLT-4
ASSAY TEXT: NCI tumour cell line growth inhibition, 48 h
Activity calls are given as the source filed them. Rule as the data show it: active = GI50 up to about 1.1 µM and inactive = higher.
Field 'call' accepts y (active), n (inactive)

Solved cases below.
COC(=O)c1sc2ncc3c(c2c1N)CCCCCC3; n
CCCCCCCCCCCCCCCC[N+](C)(C)Cc1ccc(C[N+](C)(C)CCCCCCCCCCCCCCCC)cc1; n

Query: Called result for `c1ccc2c(c1)CCc1c-2n(CCN2CCCCC2)c2ccccc12`
Result: n

Query: Call for entry `O=C1Oc2cc3c(c4cccc1c24)O[C@H](c1ccccc1)[C@@H](c1ccccc1)[C@@H]3c1ccc(Cl)cc1` :
Result: n

* * *

Reported GI50 by item:
System: M14
ASSAY TEXT: NCI tumour cell line growth inhibition, 48 h
Active and inactive are the calls of the source. Cut-off read from the data, not from the text of the source: active = GI50 up to about 1.1 µM and inactive = higher.

COc1cccc(Nc2n[nH]c(NS(=O)(=O)c3cc(C)c(Cl)cc3S)n2)c1; > 100 µM (inactive)
CC(=O)Nc1[nH]c(=O)[nH]c(=O)c1N(C(C)=O)C(C)=O; > 100 µM (inactive)
Cc1cc2c(ccc[n+]2[O-])[n+]([O-])c1; > 100 µM (inactive)
CCOC(=O)C(Oc1ccc(OC)c2c1C(=O)CCC2)c1ccccc1 (stereo not given); > 100 µM (inactive)
O=C1CC(=O)N(CCc2ccccc2)S(=O)(=O)N1CCc1ccccc1; 40.6 µM (inactive)
OC(c1ccccn1)C1CNc2ccccc21 (stereo not given); > 100 µM (inactive)

Query: Please state recorded GI50 (tested on M14) of `CCCCc1ccc(Nc2nc(Cl)c3c(ncn3COCCOC(C)=O)n2)cc1`
Result: 17.9 µM (inactive)

Query: What measured GI50 is associated with `O=C1Oc2cc3c(c4cccc1c24)O[C@H](c1ccccc1)[C@@H](c1ccccc1)[C@@H]3c1ccc(Cl)cc1` on M14?
Result: 40.1 µM (inactive)

Query: Could you share what GI50 was measured for `Cc1ccc(NC(=S)NNC(=O)c2cc(-c3ccccc3)nc3ccccc23)cc1C` , tested on M14?
Result: 15.5 µM (inactive)

Query: Under M14: GI50 value of `O=C(O)CCC(O)=C1S(=O)(=O)OCCOS1(=O)=O` ?
Result: > 100 µM (inactive)
